Record form. Attribute: IC50. Fill in for each entry.
- Test system: CEM cells HIV-1 protection, formazan growth assay
- Protocol Description: NCI AIDS Antiviral Assay
- Condition Parameters: measured here: growth of uninfected CEM cells
- Experimental: The ability of compounds to protect human CEM cells from HIV-1 infection is measured as a screen for new compounds capable of inhibiting the HIV virus. Five concentrations of drug were tested on uninfected and infected cells and cell growth was measured using a soluble formazan assay. […] Compounds that provided at least 50% protection were retested. Compounds that provided at least 50% protection on retest were listed as moderately active. […]

Request: Identify IC50 associated with the molecule N#Cc1ccccc1/C=N/O
Response: > 35.5 µM

Request: Give reported IC50 value for O=c1cn[nH]c2cccc(Cl)c12
Response: > 117 µM

Request: Fill in IC50 for record CCN1C[C@]2(C)CC[C@H](OC)C34C1C([C@H](OC(C)=O)[C@@H]32)[C@@]1(OC)C[C@H](OC)[C@H]2C[C@@H]4[C@@H]1[C@H]2O
Response: > 77.6 µM

Request: Please report IC50 for the following molecule: NC(N)=NCCCC(N)C(=O)O (centres undefined)
Response: > 200 µM

Data provenance: PubChem BioAssay AID179
